assay: Cytotoxicity against human BEAS-2B cells; type: toxicity, cell-based

# MOLECULE SMILES, IC50 (µM)
data = [
    ("CSc1ncc(-c2cnc3sc(-c4cccc(NS(=O)(=O)c5cc(F)ccc5F)c4C)nc3c2)cn1", 44.1),
    ("Cc1c(NS(=O)(=O)c2cc(F)ccc2F)cccc1-c1nc2cc(-c3ccc(C#N)nc3)cnc2s1", 37),
    ("Cc1c(NS(=O)(=O)c2cc(F)ccc2F)cccc1-c1nc2cc(-c3cnc(N)nc3)cnc2s1", 38.4),
    ("Cc1c(NS(=O)(=O)c2cc(F)ccc2F)cccc1-c1nc2cc(-c3cncnc3)cnc2s1", 42.1),
    ("COc1ncccc1-c1cnc2sc(-c3cccc(NS(=O)(=O)c4cc(F)ccc4F)c3C)nc2c1", 37.1),
]

---

tested on: NCI-H1975; experiment: Anticancer activity against human NCI-H1975 cells incubated for 72 hrs by MTT assay; assay type: functional, cell-based; details: NCI-H1975, 72 h
REPORTED PROPERTY: IC50

# MOLECULE SMILES, VALUE REPORTED
data = [
    ("CC(=O)c1ccc(-c2cnc3sc(-c4cccc(NS(=O)(=O)c5cc(F)ccc5F)c4C)nc3c2)cc1", "0.36 µM"),
    ("Cc1c(NS(=O)(=O)c2cc(F)ccc2F)cccc1-c1nc2cc(-c3cnc(N)nc3)cnc2s1", "0.08 µM"),
    ("Cc1c(NS(=O)(=O)c2cc(F)ccc2F)cccc1-c1nc2cc(-c3ccc(C#N)nc3)cnc2s1", "0.12 µM"),
    ("COc1ccc(F)cc1S(=O)(=O)Nc1cccc(-c2nc3cc(-c4ccc(C#N)nc4)cnc3s2)c1C", "4.5 µM"),
    ("Cc1c(NS(=O)(=O)c2cc(F)ccc2F)cccc1-c1nc2cc(-c3cccc(C(F)(F)F)c3)cnc2s1", "0.26 µM"),
    ("COc1cccc(-c2cnc3sc(-c4cccc(NS(=O)(=O)c5cc(F)ccc5F)c4C)nc3c2)c1", "0.34 µM"),
    ("Cc1c(NS(=O)(=O)C2CCOCC2)cccc1-c1nc2cccnc2s1", "3.12 µM"),
    ("COc1ccc(F)cc1S(=O)(=O)Nc1cccc(-c2nc3cc(-c4cncnc4)cnc3s2)c1C", "4.38 µM"),
    ("COc1ccc(F)cc1S(=O)(=O)Nc1cccc(-c2nc3cc(CN4CCOCC4)cnc3s2)c1C", "4.7 µM"),
    ("COc1ccc(F)cc1S(=O)(=O)Nc1cccc(-c2nc3cc(C#N)cnc3s2)c1C", "6.25 µM"),
    ("COc1cccc(-c2cnc3sc(-c4cccc(NS(=O)(=O)c5cc(F)ccc5OC)c4C)nc3c2)c1", "7.1 µM"),
    ("COc1ccc(F)cc1S(=O)(=O)Nc1cccc(-c2nc3cc(-c4ccc(C(C)=O)cc4)cnc3s2)c1C", "6.3 µM"),
    ("Cc1c(NS(=O)(=O)c2cc(F)ccc2F)cccc1-c1nc2cc(CN3CCOCC3)cnc2s1", "0.46 µM"),
    ("Cc1c(NS(=O)(=O)c2cccc(Cl)c2)cccc1-c1nc2cccnc2s1", "2.21 µM"),
    ("COc1ncccc1-c1cnc2sc(-c3cccc(NS(=O)(=O)c4cc(F)ccc4F)c3C)nc2c1", "0.15 µM"),
    ("Cc1c(NS(=O)(=O)c2cc(F)ccc2F)cccc1-c1nc2cc(-c3cc[nH]n3)cnc2s1", "0.3 µM"),
    ("Cc1c(NS(=O)(=O)c2cccnc2)cccc1-c1nc2cccnc2s1", "3.06 µM"),
    ("Cc1c(NS(=O)(=O)c2ccccc2)cccc1-c1nc2cccnc2s1", "3.32 µM"),
    ("CCc1cnc2sc(-c3cccc(NS(=O)(=O)c4cc(F)ccc4F)c3C)nc2c1", "0.42 µM"),
]
